This section presents compounds with their documented Ki values.
Target: UniProt:P00813
Sequence (P00813 whole entry): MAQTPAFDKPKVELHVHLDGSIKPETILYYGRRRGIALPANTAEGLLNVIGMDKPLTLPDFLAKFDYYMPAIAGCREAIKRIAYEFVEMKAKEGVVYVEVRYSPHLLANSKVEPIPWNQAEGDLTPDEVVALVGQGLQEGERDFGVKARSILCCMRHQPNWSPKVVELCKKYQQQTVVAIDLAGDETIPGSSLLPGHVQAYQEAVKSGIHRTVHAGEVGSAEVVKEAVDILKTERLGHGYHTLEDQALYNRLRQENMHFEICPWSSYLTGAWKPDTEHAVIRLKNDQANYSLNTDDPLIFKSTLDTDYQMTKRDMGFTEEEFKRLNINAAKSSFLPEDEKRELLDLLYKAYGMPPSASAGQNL
observation.type: Ki (nM)

INSERT INTO results (substance_smiles, readout_value) VALUES
  ('NC(=O)c1cn([C@@H](CO)CCn2ccc3ccc(OCCCCc4ccccc4)cc32)cn1', 12),
  ('Cc1ccc(CCC(=O)Nc2ccc3ccn(CC[C@H](CO)n4cnc(C(N)=O)c4)c3c2)cc1', 38),
  ('CCCCOc1ccc2ccn(CC[C@H](CO)n3cnc(C(N)=O)c3)c2c1', 240),
  ('NC(=O)c1cn([C@@H](CO)CCn2ccc3ccc(NC(=O)CCc4cccnc4)cc32)cn1', 17),
  ('CCCCCCOc1ccc2ccn(CC[C@H](CO)n3cnc(C(N)=O)c3)c2c1', 55),
  ('Cc1ccc(CCCC(=O)Nc2ccc3ccn(CC[C@H](CO)n4cnc(C(N)=O)c4)c3c2)cc1', 34),
  ('Cn1cc(CC[C@H](CO)n2cnc(C(N)=O)c2)c2cc(OCCCc3ccc(Cl)cc3)ccc21', 4.9),
  ('COc1ccc(CCC(=O)Nc2ccc3ccn(CC[C@H](CO)n4cnc(C(N)=O)c4)c3c2)cc1', 57),
  ('CCCCCCOc1ccc2c(c1)c(CC[C@H](CO)n1cnc(C(N)=O)c1)cn2C', 13),
  ('NC(=O)c1cn([C@@H](CO)CCn2ccc3ccc(OCCCc4ccc(Cl)cc4)cc32)cn1', 13),
  ('CCCCCC(=O)Nc1ccc2ccn(CC[C@H](CO)n3cnc(C(N)=O)c3)c2c1', 24),
  ('NC(=O)c1cn([C@@H](CO)CCn2ccc3ccc(NC(=O)CCCCCc4ccccc4)cc32)cn1', 91),
  ('NC(=O)c1cn([C@@H](CO)CCn2ccc3ccc(OCCCc4ccccc4)cc32)cn1', 17);
